Please respond with reported MIC for every item in the list.
tested on: Staphylococcus aureus; experiment: Antimicrobial activity against methicillin-resistant Staphylococcus aureus ATCC 33591; assay type: functional
# do not omit the unit; it follows the number

Ask: So what MIC did CC(=O)N[C@H]1[C@H](O[C@@H]2c3ccc(c(Cl)c3)Oc3cc4cc(c3O)Oc3ccc(cc3Cl)C[C@H]3NC(=O)[C@H](n5cc6ccccc6c5S[C@@H]5O[C@H](CO)[C@@H](O)[C@H](O)[C@H]5O)c5ccc(O)c(c5)Oc5cc(O)cc(c5)[C@H](NC3=O)C(=O)N[C@H]4C(=O)N[C@H]3C(=O)N[C@@H]2C(=O)N[C@H](C(=O)O)c2cc(O)cc(O)c2-c2cc3ccc2O)O[C@H](CO)[C@@H](O)[C@@H]1O get with Staphylococcus aureus?
Reply: 0.0075 µg/mL

Ask: Repeat for the following compound: CC(=O)N[C@H]1[C@H](O[C@@H]2c3ccc(c(Cl)c3)Oc3cc4cc(c3O)Oc3ccc(cc3Cl)C[C@H]3NC(=O)[C@H](n5cc6ccccc6c5S[C@@H]5O[C@H](COC(C)=O)[C@@H](OC(C)=O)[C@H](OC(C)=O)[C@H]5OC(C)=O)c5ccc(O)c(c5)Oc5cc(O)cc(c5)[C@H](NC3=O)C(=O)N[C@H]4C(=O)N[C@H]3C(=O)N[C@@H]2C(=O)N[C@H](C(=O)O)c2cc(O)cc(O)c2-c2cc3ccc2O)O[C@H](CO)[C@@H](O)[C@@H]1O
Reply: 0.0313 µg/mL

Ask: Next: CC(=O)N[C@H]1[C@H](O[C@@H]2c3ccc(c(Cl)c3)Oc3cc4cc(c3O)Oc3ccc(cc3Cl)C[C@H]3NC(=O)[C@H](n5cc6ccccc6c5Sc5ncccn5)c5ccc(O)c(c5)Oc5cc(O)cc(c5)[C@H](NC3=O)C(=O)N[C@H]4C(=O)N[C@H]3C(=O)N[C@@H]2C(=O)N[C@H](C(=O)O)c2cc(O)cc(O)c2-c2cc3ccc2O)O[C@H](CO)[C@@H](O)[C@@H]1O
Reply: 0.0313 µg/mL

Ask: Same again, this time with CC(=O)N[C@H]1[C@H](O[C@@H]2c3ccc(c(Cl)c3)Oc3cc4cc(c3O)Oc3ccc(cc3Cl)C[C@H]3NC(=O)[C@H](n5cc6ccccc6c5Sc5nc6ccccc6s5)c5ccc(O)c(c5)Oc5cc(O)cc(c5)[C@H](NC3=O)C(=O)N[C@H]4C(=O)N[C@H]3C(=O)N[C@@H]2C(=O)N[C@H](C(=O)O)c2cc(O)cc(O)c2-c2cc3ccc2O)O[C@H](CO)[C@@H](O)[C@@H]1O
Reply: 0.0075 µg/mL

* * *

system: Enterococcus faecalis; assay: Antimicrobial activity against Enterococcus faecalis 15376 over-expressing vanA; format: functional
PROPERTY_LABEL: MIC (µg/mL)
Express the result in µg/mL but write the number alone.

Ask: Find the measured MIC: item CC(=O)N[C@H]1[C@H](O[C@@H]2c3ccc(c(Cl)c3)Oc3cc4cc(c3O)Oc3ccc(cc3Cl)C[C@H]3NC(=O)[C@H](n5cc6ccccc6c5S[C@@H]5O[C@H](COC(C)=O)[C@@H](OC(C)=O)[C@H](OC(C)=O)[C@H]5OC(C)=O)c5ccc(O)c(c5)Oc5cc(O)cc(c5)[C@H](NC3=O)C(=O)N[C@H]4C(=O)N[C@H]3C(=O)N[C@@H]2C(=O)N[C@H](C(=O)O)c2cc(O)cc(O)c2-c2cc3ccc2O)O[C@H](CO)[C@@H](O)[C@@H]1O , target or system Enterococcus faecalis.
Reply: 4
